Value source: ChEMBL document CHEMBL1764997

system: Mus musculus; experiment: Antidiabetic activity in streptozotocin-induced diabetic ICR mouse assessed as change in blood glucose level at 10 mg/kg after 1.5 hrs by oral glucose tolerance test (RVb= 0.005 %); format: functional
measurementKind: Activity

compound	Activity
CCCC=C1OC(=O)c2ccccc21 [(E)-BUTYLIDENEPHTHALIDE]	1.5%

Request: Name the value of Activity reported for COc1ccc(Cl)cc1C(=O)NCCc1ccc(S(=O)(=O)NC(=O)NC2CCCCC2)cc1 [GLYBURIDE] when tested on Mus musculus.
Response: -10%

Request: Please report the measured Activity for CCC/C=C1\OC(=O)C2=C1CCC=C2 [LIGUSTILIDE] tested on Mus musculus.
Response: -19%

Request: Quote Mus musculus Activity for entry CCC/C=C1\OC(=O)C2=C[C@H]3CC[C@]21C1C2=C(CC[C@H]13)/C(=C\CCC)OC2=O (some centres undefined) .
Response: 5.7%

---

molecular target: Alpha-glucosidase MAL62 (Saccharomyces cerevisiae)
Sequence (P07265 whole entry): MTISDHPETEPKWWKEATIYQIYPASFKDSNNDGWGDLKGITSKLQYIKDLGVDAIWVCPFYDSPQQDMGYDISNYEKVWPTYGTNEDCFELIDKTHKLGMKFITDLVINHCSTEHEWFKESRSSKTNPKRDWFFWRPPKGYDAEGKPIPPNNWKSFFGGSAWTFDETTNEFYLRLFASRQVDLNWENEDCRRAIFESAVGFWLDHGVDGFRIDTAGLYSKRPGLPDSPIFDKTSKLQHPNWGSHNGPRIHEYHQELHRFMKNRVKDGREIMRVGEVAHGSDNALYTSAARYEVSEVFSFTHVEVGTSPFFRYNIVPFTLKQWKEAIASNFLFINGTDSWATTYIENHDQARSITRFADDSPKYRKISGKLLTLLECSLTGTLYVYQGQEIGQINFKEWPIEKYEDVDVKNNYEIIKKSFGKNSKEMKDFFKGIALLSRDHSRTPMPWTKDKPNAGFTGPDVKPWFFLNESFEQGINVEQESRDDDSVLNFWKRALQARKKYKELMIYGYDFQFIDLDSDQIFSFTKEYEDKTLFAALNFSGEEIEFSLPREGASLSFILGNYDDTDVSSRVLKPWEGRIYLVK
measurementKind: pIC50
// field semantics: pIC50 = negative decimal log of concentration (mol/L)

Request: Lab note: record pIC50 of CCCC=C1OC(=O)c2ccccc21 [(E)-BUTYLIDENEPHTHALIDE] tested on Alpha-glucosidase MAL62 (Saccharomyces cerevisiae).
Response: 2.63

---

target: Alpha-glucosidase MAL62 (Saccharomyces cerevisiae); experiment: Inhibition of yeast alpha-glucosidase assessed as inhibition of p-nitrophenyl-alpha-D-glucopyranoside substrate hydrolysis after 35 mins by spectroscopy
The source made the active and inactive calls. No cut-off for these calls is given here.
One label from this list, please: active, inactive

Solved entries (count: 5):
compound	targetUnderTest	labelClass
C=CCc1cc(OC)c2c(c1)OCO2	Alpha-glucosidase MAL62 (Saccharomyces cerevisiae)	inactive
C[C@H]1O[C@H](O[C@H]2[C@H](O)[C@@H](O)[C@@H](O[C@H]3[C@H](O)[C@@H](O)C(O)O[C@@H]3CO)O[C@@H]2CO)[C@H](O)[C@@H](O)[C@@H]1N[C@H]1C=C(CO)[C@@H](O)[C@H](O)[C@H]1O (stereo partly specified)	Alpha-glucosidase MAL62 (Saccharomyces cerevisiae)	active
CCC/C=C1\OC(=O)C2=C1CCC=C2 [LIGUSTILIDE]	Alpha-glucosidase MAL62 (Saccharomyces cerevisiae)	inactive
CCC/C=C1\OC(=O)C2=C[C@H]3CC[C@]21C1C2=C(CC[C@H]13)/C(=C\CCC)OC2=O (stereo partly specified)	Alpha-glucosidase MAL62 (Saccharomyces cerevisiae)	inactive
CCCC=C1OC(=O)c2ccccc21 [(E)-BUTYLIDENEPHTHALIDE]	Alpha-glucosidase MAL62 (Saccharomyces cerevisiae)	active

As a next step, examine the compound that follows.
Request: I would be grateful if you could indicate the recorded call for COc1cc(/C=C/C(=O)O)ccc1O [FERULATE] .
Response: inactive
